Reported cytotoxicity at 70.5 h values are given for each entry in this list.
Assay: Human HepG2 cell viability assay in 384 well format
Type: toxicity, cell-based
Design: dose 125 nL, time 70.5 hour; concentration not given beside the values
Conditions: HepG2 cells, read-out: Inhibition

compound	cytotoxicity at 70.5 h (%)
CS(=O)(=O)CCC(=O)NC1(c2cccc(C(F)(F)F)c2)CCC1	-24.7
CCn1ccnc1CN1CCN(CC(=O)NC(C)(C#N)C2CC2)CC1 (stereo unspecified)	-6.12
O[C@@H]1C[C@@](CNCC2CC2)(COc2cccnc2)C[C@@H]1O	-7.73
CCc1ccsc1C(=O)N1CCCC(c2noc(C)n2)C1 (stereo unspecified)	-2.57
Cc1ncc2c(n1)CN(CCOc1ccc3c(c1)CCC(=O)N3)CC2	-6.43
CC(C)Cn1cncc1CNC(=O)c1cccc(CC2CCNCC2)c1	8.07
COCCN1CCN(Cc2cccnc2)[C@H]2CS(=O)(=O)C[C@H]21	21.4
CC(C)N(C)Cc1cc(=O)n2c(n1)CN(C(=O)c1ccnnc1)CCC2	-2.81
FC(F)(F)Oc1cccc(CNC[C@H]2Cn3ccnc3CO2)c1	0.704
CN(Cc1cnn(C)c1)C(=O)c1cc2ccccc2c(=O)[nH]1	-9.32
CCOc1ccc(-c2c(C#N)c(N)nc3c2COCC3)cn1	-15
